Target: T1, Recombinant human MASP1 enzyme (fragment corresponding to amino acids 297-699, C-terminal His Tag) (human, UniProt P48740 297-699)
T1 sequence: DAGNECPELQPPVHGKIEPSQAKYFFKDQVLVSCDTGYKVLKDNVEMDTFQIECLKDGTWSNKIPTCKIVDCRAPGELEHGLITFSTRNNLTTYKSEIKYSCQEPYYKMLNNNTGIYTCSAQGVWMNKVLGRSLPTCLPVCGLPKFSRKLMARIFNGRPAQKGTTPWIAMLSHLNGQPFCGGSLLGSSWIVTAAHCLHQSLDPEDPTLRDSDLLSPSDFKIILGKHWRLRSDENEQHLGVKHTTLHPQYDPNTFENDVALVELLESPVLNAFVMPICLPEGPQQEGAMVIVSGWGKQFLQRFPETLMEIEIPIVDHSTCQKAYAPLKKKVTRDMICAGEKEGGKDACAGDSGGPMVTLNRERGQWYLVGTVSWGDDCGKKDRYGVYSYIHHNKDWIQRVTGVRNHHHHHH
Test: cell-based or functional assay
Numbered stars: 1 amine (or outer) side, 2 acyl side, 3 side chain; on linkers, the order of the positions; unused ones are H or OH. Bridge positions count the residues as written; N and C are the ends. Square brackets hold non-standard residues; d marks the D form. Ends that are not written are not given here. X11 = (S)‑Piperidine‑3‑carboxylic acid, O=C([C@H]1CCCN([*:1])C1)[*:2]; Nip(3R) = O=C([C@@H]1CCCN([*:1])C1)[*:2]; Oic = O=C(O)[C@@H]1C[C@@H]2CCCC[C@@H]2N1; PEG8 = NCCOCCOCCOCCOCCOCCOCCOCCOCCC(=O)O; tBuAla = CC(C)(C)C[C@H](N)C(=O)O; Pen = CC(C)(S)[C@H](N)C(=O)O; PEG3 = NCCOCCOCCOCCC(=O)O; Sar = CNCC(=O)O
Reported human MASP1 IC50 values follow for various binders

{"columns": ["Binder", "Unit label", "human MASP1 IC50"],
 "data": [
  ["[Sar]ICSRSLP[Oic]I[Pen]IPD[PEG3]-OH (disulfide 3-11; N-terminus assumed; SMILES CC[C@H](C)[C@H](NC(=O)CNC)C(=O)N[C@H]1CSSC(C)(C)[C@@H](C(=O)N[C@H](C(=O)N2CCC[C@H]2C(=O)N[C@@H](CC(=O)O)C(=O)NCCOCCOCCOCCC(=O)O)[C@@H](C)CC)NC(=O)[C@H]([C@@H](C)CC)NC(=O)[C@@H]2C[C@@H]3CCCC[C@@H]3N2C(=O)[C@@H]2CCCN2C(=O)[C@H](CC(C)C)NC(=O)[C@H](CO)NC(=O)[C@H](CCCNC(=N)N)NC(=O)[C@H](CO)NC1=O) [((N-Me)G)-IC+SRSLP-(Oic)-I-(Pen)+IPD-(PEG2(13 atoms))-OH]", "nM", 5.5],
  ["PICSRS[tBuAla]PPI[Pen]IPD-OH (disulfide 3-11; N-terminus assumed; SMILES CC[C@H](C)[C@H](NC(=O)[C@@H]1CCCN1)C(=O)N[C@H]1CSSC(C)(C)[C@@H](C(=O)N[C@H](C(=O)N2CCC[C@H]2C(=O)N[C@@H](CC(=O)O)C(=O)O)[C@@H](C)CC)NC(=O)[C@H]([C@@H](C)CC)NC(=O)[C@@H]2CCCN2C(=O)[C@@H]2CCCN2C(=O)[C@H](CC(C)(C)C)NC(=O)[C@H](CO)NC(=O)[C@H](CCCNC(=N)N)NC(=O)[C@H](CO)NC1=O) [(beta-P)-IC+SRS-((tBu)A)-PPI-(Pen)+IPD-OH]", "nM", 3],
  ["[Sar]ICSRSLP[Oic]I[Pen]IPY-OH (disulfide 3-11; N-terminus assumed; SMILES CC[C@H](C)[C@H](NC(=O)CNC)C(=O)N[C@H]1CSSC(C)(C)[C@@H](C(=O)N[C@H](C(=O)N2CCC[C@H]2C(=O)N[C@@H](Cc2ccc(O)cc2)C(=O)O)[C@@H](C)CC)NC(=O)[C@H]([C@@H](C)CC)NC(=O)[C@@H]2C[C@@H]3CCCC[C@@H]3N2C(=O)[C@@H]2CCCN2C(=O)[C@H](CC(C)C)NC(=O)[C@H](CO)NC(=O)[C@H](CCCNC(=N)N)NC(=O)[C@H](CO)NC1=O) [((N-Me)G)-IC+SRSLP-(Oic)-I-(Pen)+IPY-OH]", "nM", 3.2],
  ["[X11]ICSRSLP[Oic]I[Pen]I-OH (disulfide 3-11; N-terminus assumed; SMILES CC[C@H](C)[C@H](NC(=O)[C@H]1NC(=O)[C@H]([C@@H](C)CC)NC(=O)[C@@H]2C[C@@H]3CCCC[C@@H]3N2C(=O)[C@@H]2CCCN2C(=O)[C@H](CC(C)C)NC(=O)[C@H](CO)NC(=O)[C@H](CCCNC(=N)N)NC(=O)[C@H](CO)NC(=O)[C@@H](NC(=O)[C@@H](NC(=O)[C@H]2CCCNC2)[C@@H](C)CC)CSSC1(C)C)C(=O)O) [((S)-Piperidine-3-carboxylic acid)-IC+SRSLP-(Oic)-I-(Pen)+I-OH]", "nM", 8.2],
  ["[Sar]ICSRSLP[Oic]I[Pen]IPX-OH (disulfide 3-11; not fully specified (residue 14); printed as ((N-Me)G)-IC+SRSLP-(Oic)-I-(Pen)+IP-(*Dap)-OH; also: C-terminal Dap joined through its 3-amino group) [((N-Me)G)-IC+SRSLP-(Oic)-I-(Pen)+IP-(*Dap)-OH]", "nM", 6.6],
  ["[Sar]ICSRS[tBuAla]PPI[Pen]IP-{PEG8-OH} (disulfide 3-11) [((N-Me)G)-IC+SRS-((tBu)A)-PPI-(Pen)+IP-(PEG8(28 atoms))-OH]", "nM", 7.9],
  ["[Nip(3R)]ICSRSLP[Oic]I[Pen]IPD-OH (disulfide 3-11; N-terminus assumed; SMILES CC[C@H](C)[C@H](NC(=O)[C@@H]1CCCNC1)C(=O)N[C@H]1CSSC(C)(C)[C@@H](C(=O)N[C@H](C(=O)N2CCC[C@H]2C(=O)N[C@@H](CC(=O)O)C(=O)O)[C@@H](C)CC)NC(=O)[C@H]([C@@H](C)CC)NC(=O)[C@@H]2C[C@@H]3CCCC[C@@H]3N2C(=O)[C@@H]2CCCN2C(=O)[C@H](CC(C)C)NC(=O)[C@H](CO)NC(=O)[C@H](CCCNC(=N)N)NC(=O)[C@H](CO)NC1=O) [((R)-Piperidine-3-Carboxylic Acid)-IC+SRSLP-(Oic)-I-(Pen)+IPD-OH]", "nM", 5.2],
  ["[Sar]ICSRSLP[Oic]I[Pen]IPDA-OH (disulfide 3-11; N-terminus assumed; SMILES CC[C@H](C)[C@H](NC(=O)CNC)C(=O)N[C@H]1CSSC(C)(C)[C@@H](C(=O)N[C@H](C(=O)N2CCC[C@H]2C(=O)N[C@@H](CC(=O)O)C(=O)N[C@@H](C)C(=O)O)[C@@H](C)CC)NC(=O)[C@H]([C@@H](C)CC)NC(=O)[C@@H]2C[C@@H]3CCCC[C@@H]3N2C(=O)[C@@H]2CCCN2C(=O)[C@H](CC(C)C)NC(=O)[C@H](CO)NC(=O)[C@H](CCCNC(=N)N)NC(=O)[C@H](CO)NC1=O) [((N-Me)G)-IC+SRSLP-(Oic)-I-(Pen)+IPDA-OH]", "nM", 2.6]
]}
